Target: human orexin-2 receptor (Homo sapiens (Human))
Sequence (O43614 whole entry): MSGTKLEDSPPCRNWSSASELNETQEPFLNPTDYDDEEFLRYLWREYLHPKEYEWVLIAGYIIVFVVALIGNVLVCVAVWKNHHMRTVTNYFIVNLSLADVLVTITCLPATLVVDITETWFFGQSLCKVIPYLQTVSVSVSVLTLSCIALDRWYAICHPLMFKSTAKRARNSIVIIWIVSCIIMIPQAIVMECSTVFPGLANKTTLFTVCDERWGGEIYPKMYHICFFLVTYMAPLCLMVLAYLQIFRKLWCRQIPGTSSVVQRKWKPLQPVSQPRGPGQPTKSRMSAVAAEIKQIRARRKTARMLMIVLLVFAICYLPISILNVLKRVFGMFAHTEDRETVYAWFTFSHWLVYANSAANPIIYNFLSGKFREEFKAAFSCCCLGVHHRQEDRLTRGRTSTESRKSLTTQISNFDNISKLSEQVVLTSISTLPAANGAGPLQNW
Test: radioligand binding assay, hOX2R BIND
Details: membranes from CHO cells expressing OX2 receptor; read-out: hOX2R BIND hKi
Protocol: In a typical experiment the OX1 and OX2 receptor antagonistic activity of the compounds of the present invention was determined in accordance with the following experimental method. […] Within the Fluorescent Imaging Plate Reader (FLIPR, Molecular Devices), test compounds are added to the plate in a volume of 25 μl, incubated for 5 min and finally 25 μl of agonist is added. […]
pKi: −log10 of the molar value.
Measurement Label: pKi

• COC(=O)c1c(C#N)ccnc1O[C@@H]1CC[C@@H](C)N(C(=O)c2ccccc2-c2nc(C)no2)C1 = 9.43
• COC(=O)c1c(C#N)ccnc1O[C@@H]1CC[C@@H](C)N(C(=O)c2ccc(OC)nc2-n2nccn2)C1 = 8.72
• COC(=O)c1c(C#N)ccnc1O[C@@H]1CC[C@@H](C)N(C(=O)c2ccc(F)cc2-c2nc(C)no2)C1 = 8.66
• COC(=O)c1c(C#N)ccnc1O[C@@H]1CC[C@@H](C)N(C(=O)c2cccc(F)c2-n2nccn2)C1 = 9.36
• COC(=O)c1c(C#N)ccnc1O[C@@H]1CC[C@@H](C)N(C(=O)c2ccccc2-c2noc(C)n2)C1 = 9.28
• COC(=O)c1c(C#N)ccnc1O[C@@H]1CC[C@@H](C)N(C(=O)c2cccc(F)c2-c2noc(C)n2)C1 = 9.30
• COC(=O)c1c(C#N)ccnc1O[C@@H]1CC[C@@H](C)N(C(=O)c2cc(F)ccc2-c2noc(C)n2)C1 = 9.30
